observable: melting point (°C)
Your answer should be a plain number; it is taken to be in °C.

For orientation, consider the following solved cases.
>  <smilesEntry>
Cl.N=C(N)NC(=O)c1cn(-c2ccnc3cc(C(F)(F)F)ccc23)c2ccccc12

>  <melting point / °C>
238

$$$$
>  <smilesEntry>
COc1ccc2nccc(-n3cc(C(=O)NC(=N)N)c4ccccc43)c2c1.Cl

>  <melting point / °C>
266

$$$$
>  <smilesEntry>
Cl.N=C(N)NC(=O)c1cn(-c2ccnc3ccc(C(F)(F)F)cc23)c2ccccc12

>  <melting point / °C>
260

$$$$

# input State the recorded melting point for this entry: "Cl.N=C(N)NC(=O)c1cn(-c2ccnc3c(C(F)(F)F)cccc23)c2ccccc12"
# output 212

# input compound: "COc1ccc2c(-n3cc(C(=O)NC(=N)N)c4ccccc43)ccnc2c1.Cl" ; wanted: its melting point
# output 266

# input Which value of melting point has been reported for "Cl.N=C(N)NC(=O)c1cn(-c2cc(C(F)(F)F)nc3ccccc23)c2ccccc12" in the records?
# output 216

# input Recorded melting point of "Cl.Cn1ccc2c(-n3cc(C(=O)NC(=N)N)c4ccccc43)ncnc21" , please.
# output 244

FYI, the data here is from patent US7638521B2.
